assaySystem: mouse melanocortin 3 receptor (mouse, UniProt P33033 1-323)
Sequence (P33033 whole entry): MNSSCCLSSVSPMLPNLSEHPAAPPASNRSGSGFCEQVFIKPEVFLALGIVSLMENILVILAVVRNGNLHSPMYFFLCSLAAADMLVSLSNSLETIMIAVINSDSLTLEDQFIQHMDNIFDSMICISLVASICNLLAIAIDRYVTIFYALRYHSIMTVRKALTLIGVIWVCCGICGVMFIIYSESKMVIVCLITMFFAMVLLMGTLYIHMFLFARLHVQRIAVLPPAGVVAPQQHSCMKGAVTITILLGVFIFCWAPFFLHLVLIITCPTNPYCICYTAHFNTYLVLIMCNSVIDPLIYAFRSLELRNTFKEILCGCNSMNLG
assayComment: cell-based or functional assay
Non-standard residues stand in square brackets, D forms with d. Dap = NC[C@H](N)C(=O)O
endpoint: percent maximal stimulatory response observed at 100 µM (%)

cyclo(PH[dF]RW[dP]) (also: TFA salt) [MDE5-147-2c, c[Pro-His-DPhe-Arg-Trp-DPro]] = 60

[A] cyclo(P[dF]RW[Dap]A[dP]) (also: TFA salt) [MDE6-5-1c, c[Pro-DPhe-Arg-Trp-Dap-Ala-DPro]]
[B] cyclo(P[dF]RWNAF[dP]) (also: TFA salt) [MDE5-149-1c, c[Pro-DPhe-Arg-Trp-Asn-Ala-Phe-DPro]]
Input line: Form field 'greater percent maximal stimulatory response observed at 100 µM' accepts A or B ; which applies? Field: selected label. Fill in the label of the entry you choose.
Output line: A

Sourced from patent US20180118789A1
